This collection of values is drawn from patent US20230303681A1.

molecular target: T1, mouse TMEM106B (mouse, UniProt Q80X71 2-275); experiment: FACS Neuro2a;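 further: flow cytometry of cells stained with antibody or hybridoma supernatant (purified antibody at 10 µg/ml) for 1 h on ice, propidium iodide–positive dead cells gated out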
T1 construct: on transiently transfected HEK293 cells, or natively expressed on mouse Neuro2a cells; also called moTMEM106B; murine TMEM106B
Exercise: for every item that follows, state its recorded MFI.
Kindly provide the number alone.

Enquiry: If you can, please state the reported MFI value of anti-TMEM106B antibody TM-13 (antibody, V domains shown) VH: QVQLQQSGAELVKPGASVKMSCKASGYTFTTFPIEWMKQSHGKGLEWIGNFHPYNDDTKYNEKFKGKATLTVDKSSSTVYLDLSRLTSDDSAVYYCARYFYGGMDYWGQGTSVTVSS VL: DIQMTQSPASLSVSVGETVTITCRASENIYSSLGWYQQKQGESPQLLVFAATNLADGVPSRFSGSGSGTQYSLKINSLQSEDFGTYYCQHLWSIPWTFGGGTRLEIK .
Return: 927

Enquiry: Can you handle anti-TMEM106B antibody TM-27 (antibody, V domains shown) VH: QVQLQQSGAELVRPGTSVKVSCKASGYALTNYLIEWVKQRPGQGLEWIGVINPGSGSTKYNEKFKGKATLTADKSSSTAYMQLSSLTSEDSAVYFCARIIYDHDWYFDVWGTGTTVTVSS VL: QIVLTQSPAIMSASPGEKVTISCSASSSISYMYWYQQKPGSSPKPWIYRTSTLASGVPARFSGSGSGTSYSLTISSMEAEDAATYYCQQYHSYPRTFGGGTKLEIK next?
Return: 1580

Enquiry: Can you handle anti-TMEM106B antibody TM-11 (antibody, V domains shown) VH: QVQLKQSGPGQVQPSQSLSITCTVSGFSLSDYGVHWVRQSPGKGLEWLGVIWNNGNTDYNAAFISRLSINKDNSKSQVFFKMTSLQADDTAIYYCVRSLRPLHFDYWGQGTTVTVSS VL: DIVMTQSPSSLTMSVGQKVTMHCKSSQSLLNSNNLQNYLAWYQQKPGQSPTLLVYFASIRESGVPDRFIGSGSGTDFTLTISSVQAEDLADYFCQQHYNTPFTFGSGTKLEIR next?
Return: 1040

Enquiry: Can you handle anti-TMEM106B antibody TM-48 (antibody, V domains shown) VH: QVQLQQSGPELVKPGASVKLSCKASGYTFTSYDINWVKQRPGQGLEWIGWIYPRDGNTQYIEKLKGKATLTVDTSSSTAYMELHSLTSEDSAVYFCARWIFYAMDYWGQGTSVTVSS VL: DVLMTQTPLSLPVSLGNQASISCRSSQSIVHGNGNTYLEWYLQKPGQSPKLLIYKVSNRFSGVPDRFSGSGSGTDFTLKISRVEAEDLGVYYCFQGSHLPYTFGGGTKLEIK next?
Return: 292

Enquiry: Can you handle anti-TMEM106B antibody TM-15 (antibody, V domains shown, mouse IgG from hybridoma) VH: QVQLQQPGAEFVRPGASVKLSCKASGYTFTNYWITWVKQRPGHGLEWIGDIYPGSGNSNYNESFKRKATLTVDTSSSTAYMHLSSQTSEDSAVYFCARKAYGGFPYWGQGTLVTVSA VL: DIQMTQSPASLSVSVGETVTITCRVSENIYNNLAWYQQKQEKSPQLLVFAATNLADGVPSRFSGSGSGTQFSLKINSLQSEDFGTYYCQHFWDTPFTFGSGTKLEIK next?
Return: 470
